Tested on: HSV-1
Test: Plaque reduction assay, HSV-1 clinical isolates on Vero cells
Format: cell-based
Settings: Human alphaherpesvirus 1, Vero, isolate HPG021, HSV-1 pol T839A (2515A>G); also TK deletion (G) nt 430-436; read-out: Drug susceptibility Penciclovir (PCV)
readout: IC50

// Nc1nc2c(ncn2CCC(CO)CO)c(=O)[nH]1 : IC50 value = > 40 µM

###

Tested on: HSV-1
Assay: Plaque reduction assay, HSV-1 clinical isolates on Vero cells
Assay type: cell-based
Conditions: Human alphaherpesvirus 1, Vero, isolate HPG025, HSV-1 pol E850Q (2548G>C); also TK R216C; read-out: Drug susceptibility Penciclovir (PCV)
readout: IC50

Short answer for Nc1nc2c(ncn2CCC(CO)CO)c(=O)[nH]1 [Penciclovir, penciclovir] : IC50 was > 40 µM
